- Tested on: 4 PI3K isoforms (Human recombinant GST-PI3K)
- test_protocol: PI3K scintillation proximity assay, best IC50 obtained with the four isoforms (alpha, beta, delta, gamma)
- Assay type: biochemical
- details: best IC50 obtained with the four isoforms of PI3K; read-out: Best potency measured on the 4 PI3K isoforms
recorded_metric: IC50 (nM)

INSERT INTO measurements (compound, recorded_metric, data_value) VALUES
  ('O=C(c1nn(-c2ccccc2)c2c1CS(=O)(=O)c1nccn1-2)N1CCOCC1', 'IC50', 477),
  ('CCC1c2c(C(=O)N3CCOCC3)nn(-c3ccccc3)c2-c2ccccc2S1(=O)=O (stereo not drawn)', 'IC50', 2470),
  ('COCCN1CCC[C@H](n2nc(C(=O)N3CCOCC3)c3c2-c2ccc(OC)cc2S(=O)(=O)C3)C1 (single isomer, unassigned)', 'IC50', 93);

a: COCCNc1ccc2c(c1)S(=O)(=O)Cc1c(C(=O)N3CCOCC3)nn(-c3ccccc3)c1-2
b: O=C(c1nn(-c2ccc(CN3CC(F)C3)cc2)c2c1CS(=O)(=O)c1ccccc1-2)N1CCOCC1
c: O=C(c1nn(C2CCCN(CCO)C2)c2c1CS(=O)(=O)c1ccccc1-2)N1CCOCC1 (stereo not drawn)
Input line: // smallest IC50 at index 0, largest at the end To answer, arrange all of the labels according to the requested order.
Output line: b, c, a

====

- System: 4 PI3K isoforms (Human recombinant GST-PI3K)
- test_protocol: PI3K scintillation proximity assay, best IC50 obtained with the four isoforms (alpha, beta, delta, gamma)
- Type: biochemical
- details: best IC50 obtained with the four isoforms of PI3K; read-out: Best potency measured on the 4 PI3K isoforms
recorded_metric: IC50 (nM)

INSERT INTO assay_data (compound, recorded_metric, uom, data_value) VALUES
  ('CC1COCCN1CCN1CCC[C@H](n2nc(C(=O)N3CCOCC3)c3c2-c2ccccc2S(=O)(=O)C3)C1 (single isomer, unassigned)', 'IC50', 'nM', 101),
  ('O=C(c1nn([C@H]2CCCN(CCN3CCC(O)CC3)C2)c2c1CS(=O)(=O)c1ccccc1-2)N1CCOCC1 (stereo in doubt)', 'IC50', 'nM', 18),
  ('O=C(c1nn(-c2ccccc2)c2c1CS(=O)(=O)c1ccncc1-2)N1CCOCC1', 'IC50', 'nM', 3050),
  ('O=C(c1nn(-c2cccc(N3CCCC3)c2)c2c1CS(=O)(=O)c1ccccc1-2)N1CCOCC1', 'IC50', 'nM', 4950),
  ('COCCN1CCC[C@@H](n2nc(C(=O)N3CCOCC3)c3c2-c2ccccc2S(=O)(=O)C3)C1 (single isomer, unassigned)', 'IC50', 'nM', 3550),
  ('O=C(c1nn(C2CCNCC2)c2c1CS(=O)(=O)c1ccccc1-2)N1CCOCC1', 'IC50', 'nM', 1520);

P: O=C(c1nn(Cc2ccccn2)c2c1CS(=O)(=O)c1ccccc1-2)N1CCOCC1
Q: Cc1nnc(-c2cccc(-n3nc(C(=O)N4CCOCC4)c4c3-c3ccccc3S(=O)(=O)C4)c2)o1
Input line: Of P and Q , which one carries the higher reported IC50? Lab note: record the label of whichever item you select.
Output line: P
(P: 3960 nM, Q: 1200 nM)

P: CC(C)(CN1CCOCC1)c1ccc(-n2nc(C(=O)N3CCOCC3)c3c2-c2ccccc2S(=O)(=O)C3)cc1
Q: O=C(c1nn(C2CCOCC2)c2c1CS(=O)(=O)c1sccc1-2)N1CCOCC1
R: CC1(C)CN(Cc2ccc(-n3nc(C(=O)N4CCOCC4)c4c3-c3ccccc3S(=O)(=O)C4)cc2)CCO1
Input line: Order these by IC50, descending, and give the full ranking. To answer, arrange all of the labels according to the requested order.
Output line: Q, P, R
(Q: 824 nM, P: 341 nM, R: 120 nM)

Values from patent US9073940B2
